Target: RNR (R1 and R2 recombinant proteins) (Homo sapiens)
Construct: made in house; host or cells: Escherichia coli
Assay: RNR assay (formation of dCDP from CDP)
Format: biochemical
Settings: CDP to dCDP; mean ± SD; read-out: Enzyme IC50
In this section we review reported IC50 values for a set of molecules.
Your answer is read as µM, so omit the unit and give the number.

{"columns": ["Molecule", "Reading"],
 "data": [
  ["O=C(Nc1nc(-c2ccc(O)c(O)c2)c(-c2ccccc2)s1)c1ccc(O)c(O)c1", 6.76],
  ["Cc1ccc(F)c([C@@H](C)[C@H](NS(=O)(=O)c2ccc(Cl)cc2C(N)=O)c2n[nH]c(=O)o2)c1C", 0.0542],
  ["NC(=S)N/N=C/c1ncccc1N", 0.364]
]}

Lab note: next molecule to report on.
*Q* Item NC(=O)NO [HU, Hydroxyurea, reference compound] : provide IC50
*A* 188

###

Target: RNR (R1 and R2 recombinant proteins) (Homo sapiens, UniProt P23921)
Construct: made in house; host or cells: Escherichia coli
Sequence (P23921 whole entry): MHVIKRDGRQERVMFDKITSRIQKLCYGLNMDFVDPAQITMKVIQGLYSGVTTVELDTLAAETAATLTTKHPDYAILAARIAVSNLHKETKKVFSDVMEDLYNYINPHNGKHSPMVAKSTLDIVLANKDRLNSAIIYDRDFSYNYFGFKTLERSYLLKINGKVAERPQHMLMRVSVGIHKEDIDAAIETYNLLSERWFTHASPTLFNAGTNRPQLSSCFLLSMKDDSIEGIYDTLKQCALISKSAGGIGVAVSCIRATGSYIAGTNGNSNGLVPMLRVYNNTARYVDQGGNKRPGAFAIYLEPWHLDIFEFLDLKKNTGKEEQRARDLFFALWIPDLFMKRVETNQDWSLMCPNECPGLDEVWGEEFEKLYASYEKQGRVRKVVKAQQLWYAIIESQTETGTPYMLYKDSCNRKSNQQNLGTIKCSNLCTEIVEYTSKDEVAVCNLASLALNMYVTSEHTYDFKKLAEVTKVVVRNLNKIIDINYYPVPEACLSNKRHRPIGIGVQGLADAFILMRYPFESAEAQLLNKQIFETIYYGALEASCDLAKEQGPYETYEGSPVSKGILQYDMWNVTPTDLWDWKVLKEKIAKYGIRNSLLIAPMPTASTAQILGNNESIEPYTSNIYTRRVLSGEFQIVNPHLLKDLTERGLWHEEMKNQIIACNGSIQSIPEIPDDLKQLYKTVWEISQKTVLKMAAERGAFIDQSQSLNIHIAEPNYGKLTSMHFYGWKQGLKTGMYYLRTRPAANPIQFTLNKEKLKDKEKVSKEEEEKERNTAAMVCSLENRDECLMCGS
Experiment: RNR assay (formation of dCDP from CDP)
Type: biochemical
Protocol: The binding affinity of TAS1553 to the R1 subunit was investigated using surface plasmon resonance (SPR) binding analysis. […] Next, we evaluated the inhibitory effect of TAS1553 against the enzymatic activity of RNR, consisting of R1 and R2 recombinant proteins. RNR activity was determined by its ability to reduce cytidine diphosphate (CDP) to deoxycytidine diphosphate (dCDP), based on a previous report. […]
Ends that are not written are not given here.
Reported Metric: pIC50
pIC50 here is simply -log10 of the concentration when that concentration is written in mol/L.

*Q* Return reported pIC50 for target or system RNR (R1 and R2 recombinant proteins) (Homo sapiens, UniProt P23921), item Ac-FTLDADF [P7, N-AcFTLDADF] .
*A* 4.84
